Tested on: ACHN renal
Experiment: NCI tumour cell line growth inhibition, 48 h
Quick reference for TGI among some compounds
OBSERVATION_TYPE: TGI (µM)

[
  {
    "COMPOUND": "COn1cc(C(=O)N=C(SC)SC)c2ccccc21",
    "RELATION_SYMBOL": "=",
    "QUANTITATIVE_RESULT": 47.7
  },
  {
    "COMPOUND": "CCC12C=CCN3CCC4(C(=C(C(=O)OC)C1)Nc1ccccc14)[C@H]32 (some centres undefined)",
    "RELATION_SYMBOL": ">",
    "QUANTITATIVE_RESULT": 100
  },
  {
    "COMPOUND": "O=S1Cc2ccccc2CSS1 (centres undefined)",
    "RELATION_SYMBOL": "=",
    "QUANTITATIVE_RESULT": 30.9
  },
  {
    "COMPOUND": "COc1cc[nH]c1/C=C1\\C(=O)Nc2ccc([N+](=O)[O-])c(N3CC[C@@H](O)C3)c21",
    "RELATION_SYMBOL": "=",
    "QUANTITATIVE_RESULT": 2
  }
]

----------
Quick reference for TGI among some compounds
Test system: UO-31 renal
Assay: NCI tumour cell line growth inhibition, 48 h
OBSERVATION_TYPE: TGI

[
  {
    "COMPOUND": "NC(C(=O)O)c1ccc(C(=O)O)cc1 (configuration not stated)",
    "OBSERVATION_TYPE": "TGI",
    "RESULT": "> 100 µM"
  },
  {
    "COMPOUND": "Cc1ccc(C(=O)C(C)N)cc1C (configuration not stated)",
    "OBSERVATION_TYPE": "TGI",
    "RESULT": "> 100 µM"
  },
  {
    "COMPOUND": "COc1cc2c3c4c1OCc1c5c(cc(c1-4)CC3[N+](C)(C)CC2)OCO5 (configuration not stated)",
    "OBSERVATION_TYPE": "TGI",
    "RESULT": "> 100 µM"
  },
  {
    "COMPOUND": "CCC12C=CCN3CCC4(C(=C(C(=O)OC)C1)Nc1ccccc14)[C@H]32 (some centres not stated)",
    "OBSERVATION_TYPE": "TGI",
    "RESULT": "> 100 µM"
  },
  {
    "COMPOUND": "O=c1c2cc([N+](=O)[O-])cnc2sn1-c1ccc(Br)cc1",
    "OBSERVATION_TYPE": "TGI",
    "RESULT": "> 100 µM"
  },
  {
    "COMPOUND": "CC(=O)Nc1ccc2c3c(cc(O)c2c1)N(C(=O)CCCCCC(=O)Nc1ccc2c4c(cc(O)c2c1)N(C(=O)OC(C)(C)C)CC4CCl)CC3CCl (configuration not stated)",
    "OBSERVATION_TYPE": "TGI",
    "RESULT": "> 100 µM"
  },
  {
    "COMPOUND": "CC(=O)OC1(C#N)CC2OC1C1NC21 (configuration not stated)",
    "OBSERVATION_TYPE": "TGI",
    "RESULT": "> 100 µM"
  },
  {
    "COMPOUND": "C1COCCOP2(N3CC3)=NP(N3CC3)(=NP(N3CC3)(N3CC3)=N2)OCCOCCO1 (configuration not stated)",
    "OBSERVATION_TYPE": "TGI",
    "RESULT": "> 100 µM"
  },
  {
    "COMPOUND": "CCOc1cc[n+](C(=C=[N-])C#N)cc1",
    "OBSERVATION_TYPE": "TGI",
    "RESULT": "> 100 µM"
  },
  {
    "COMPOUND": "O=S1(=O)C=C(c2ccccc2)C(c2ccccc2)=C1",
    "OBSERVATION_TYPE": "TGI",
    "RESULT": "2.6 µM"
  },
  {
    "COMPOUND": "O=c1[nH]c(=S)c2[nH]c(=O)n(-c3ccccc3)c2[nH]1",
    "OBSERVATION_TYPE": "TGI",
    "RESULT": "> 100 µM"
  },
  {
    "COMPOUND": "OCC1(CNc2cc(Cl)ncn2)CCC1",
    "OBSERVATION_TYPE": "TGI",
    "RESULT": "> 100 µM"
  },
  {
    "COMPOUND": "CC(=O)Nc1nc(C)c(-c2cc3c(c(S(C)(=O)=O)c2)C(=O)N([C@@H](C)C2CC2)C3)s1",
    "OBSERVATION_TYPE": "TGI",
    "RESULT": "> 100 µM"
  },
  {
    "COMPOUND": "CC(C)(C)c1cc2c(O)c(c1)COCc1cc(C(C)(C)C)cc(c1O)COCc1cc(C(C)(C)C)cc(c1O)COC2",
    "OBSERVATION_TYPE": "TGI",
    "RESULT": "> 100 µM"
  },
  {
    "COMPOUND": "CN(C)c1ccc(/C=c2\\sc3nnc(Cc4ccccc4)n3c2=O)cc1",
    "OBSERVATION_TYPE": "TGI",
    "RESULT": "> 100 µM"
  },
  {
    "COMPOUND": "CCN1C(=O)N(CC)C2C1NN=c1s/c(=C\\c3cnc(C)n3C)c(=O)n12 (configuration not stated)",
    "OBSERVATION_TYPE": "TGI",
    "RESULT": "> 100 µM"
  },
  {
    "COMPOUND": "CC1OC(n2cnc3c(N)nc(Cl)nc32)C(C)(O)C1O (configuration not stated)",
    "OBSERVATION_TYPE": "TGI",
    "RESULT": "> 25 µM"
  },
  {
    "COMPOUND": "Nc1cc(N)c2nc(-c3ccccc3)c(Oc3ccc(Cl)c(Cl)c3)nc2c1",
    "OBSERVATION_TYPE": "TGI",
    "RESULT": "60.7 µM"
  },
  {
    "COMPOUND": "COc1cc(OC)cc(Oc2nc3c(N)cc(C(F)(F)F)cc3nc2-c2ccccc2)c1",
    "OBSERVATION_TYPE": "TGI",
    "RESULT": "> 100 µM"
  },
  {
    "COMPOUND": "CC(=O)Oc1ccc2c3c1[C@@H]1O[C@@H]1c1cccc(c1-3)[C@@H]1O[C@H]21",
    "OBSERVATION_TYPE": "TGI",
    "RESULT": "2.91 µM"
  },
  {
    "COMPOUND": "CCNC(CCCC(NCC)P(=O)(O)O)P(=O)(O)O (configuration not stated)",
    "OBSERVATION_TYPE": "TGI",
    "RESULT": "> 100 µM"
  },
  {
    "COMPOUND": "Nc1ncnc2c1ncn2COC/C=C/I",
    "OBSERVATION_TYPE": "TGI",
    "RESULT": "> 100 µM"
  }
]

----------
Tested on: DMS 114 small cell lung
Test: NCI tumour cell line growth inhibition, 48 h
Quick reference for TGI among some compounds

[
  {
    "COMPOUND": "CCC12C=CCN3CCC4(C(=C(C(=O)OC)C1)Nc1ccccc14)[C@H]32 (some centres not stated)",
    "TGI": "49.5 µM"
  },
  {
    "COMPOUND": "C/C=C1/C(=O)O[C@]23C=C[C@@H]4C(C(=O)OC)=CO[C@H](O[C@@H]12)[C@@H]43",
    "TGI": "2.82 µM"
  },
  {
    "COMPOUND": "OCC(O)C(OC1OC(CO)C(O)C(O)C1O)c1nn(-c2ccc(Cl)cc2)c2nc3cc(Cl)ccc3nc12 (configuration not stated)",
    "TGI": "> 100 µM"
  },
  {
    "COMPOUND": "ClCCCN1CCCCC1CCl (configuration not stated)",
    "TGI": "> 100 µM"
  },
  {
    "COMPOUND": "N#CC12CC3(CCC1CCC1(C2)OCCO1)OCCO3 (configuration not stated)",
    "TGI": "> 100 µM"
  },
  {
    "COMPOUND": "Cc1nc2c(s/c(=N\\N)n2-c2ccccc2)c(=O)n1C",
    "TGI": "> 100 µM"
  },
  {
    "COMPOUND": "N#CCCn1c(CCC(=O)Nc2ccc(Cl)cc2Cl)n[nH]c1=S",
    "TGI": "> 100 µM"
  }
]

----------
Tested on: A498 renal
Assay: NCI tumour cell line growth inhibition, 48 h
Where a SMILES comes first, the peptide text is derived from it. [ ]: non-standard residue; d: D form. The star is where a group is joined. ξ: configuration not given here. dIva = CC[C@@](C)(N)C(=O)O; Aib = CC(C)(N)C(=O)O; ξP = O=C(O)C1CCCN1; βAla = NCCC(=O)O; X5 = OCN*

[
  {
    "MOLECULE": "CC[C@@](C)(NC(=O)[C@H](C)NC(=O)CCNC(=O)C(C)(C)NC(=O)[C@H](C)NC(=O)[C@@H]1CCCN1C(=O)[C@@](C)(CC)NC(=O)[C@H](Cc1ccccc1)NC(=O)C1CCCN1C(=O)C(C)(C)NC(=O)C1CCCN1C(=O)C(C)(C)NC(C)=O)C(=O)NCCC(=O)N[C@@H](CC(C)C)C(=O)NC(C)(C)C(=O)NCCC(=O)N[C@@H](CC(C)C)C(=O)NC(C)(C)C(=O)NC(C)(C)C(=O)N[C@@H](CC(C)C)C(=O)NCCC(=O)NCO (stereo partly specified) (Ac-[Aib][ξP][Aib][ξP]F[dIva]PA[Aib][βAla]A[dIva][βAla]L[Aib][βAla]L[Aib][Aib]L[βAla]-X5)",
    "GI50": "0.19 µM"
  }
]

Origin of the recorded values: PubChem BioAssay (NCI)
